Source listed as PubChem BioAssay (NCI).

Listed below: TGI values for each entry.
Tested on: OVCAR-4 ovarian
Test: NCI tumour cell line growth inhibition, 48 h

Incoming: What measured TGI is associated with CN(C)/C(=N/C(=O)Nc1ccccc1)SCc1ccccc1 on OVCAR-4 ovarian?
Outgoing: > 100 µM

---

System: OVCAR-5 ovarian
Test: NCI tumour cell line growth inhibition, 48 h
Listed below: TGI values for each entry.

Check out these entries, answers already filled in.
INSERT INTO measurements (molecule, val) VALUES
  ('O=C1CCC(c2ccccc2)(c2ccccc2)CC1', '> 100 µM'),
  ('O=C(O)C(O)C(O)C1[O][Sb][O]C1CO (stereo not given)', '> 100 µM'),
  ('CCCCC[C@@H]1OC(=O)[C@@]2(CC3c4ccccc4C2c2ccccc23)[C@H]1C(=O)OC', '> 100 µM'),
  ('COc1ccc(C2CC(C)=Nc3c([nH]c(=S)[nH]c3=O)N2)cc1 (stereo not given)', '56.7 µM'),
  ('NC(=O)Cn1c(=O)[nH]c(=O)c2[nH]cnc21', '> 100 µM'),
  ('C=CC(=O)N1C/C(=C\c2ccc(F)cc2)C(=O)/C(=C/c2ccc(F)cc2)C1', '2.7 µM'),
  ('OCC1CC2CC1C1(C2)OCCO1 (stereo not given)', '> 100 µM'),
  ('C/C(=N\n1c(N)c(C#N)c(-c2ccc(Cl)cc2)c(C#N)c1=O)c1cccnc1', '> 100 µM'),
  ('Cc1nc(Nc2ccc([N+](=O)[O-])cc2)sc1C(=O)/C=C/c1ccc(N(C)C)cc1', '> 100 µM');

Let us move to another entry and its TGI.
Incoming: What measured TGI is associated with O=C(O)c1c(Cl)c(Cl)c(Cl)c(Cl)c1-c1c2cc(I)c(=O)c(I)c-2oc2c(I)c(O)c(I)cc12 on OVCAR-5 ovarian?
Outgoing: 163 µM

---

System: LOX IMVI melanoma
Test: NCI tumour cell line growth inhibition, 48 h
Listed below: TGI values for each entry.

INSERT INTO results (molecule, metric, val) VALUES
  ('CC(C)=CCC[C@](C)(O)[C@H]1CC[C@]2(C)[C@@H]1CC[C@@H]1[C@@]3(C)CC[C@H](OC(=O)CCC(=O)O)C(C)(C)[C@@H]3CC[C@]12C', 'TGI', '30.7 µM'),
  ('O=C1CCC(c2ccccc2)(c2ccccc2)CC1', 'TGI', '> 100 µM'),
  ('CC(=O)OCC1OC(O[C@@H]2C[C@H]3C(C)(C)[C@H](OC(C)=O)CC[C@]3(C)[C@H]3CC[C@@H]4[C@]5(CC[C@@]4(C)[C@@]32C)O[C@@H]([C@H](O)C(C)(C)O)C[C@@H]5C)C(O)C(O)C1O (stereo partly specified)', 'TGI', '15.6 µM'),
  ('CCCC/C(C)=N/NC(N)=S', 'TGI', '> 100 µM'),
  ('COCCOC(=O)CCn1cc(F)c(=O)[nH]c1=O', 'TGI', '> 150 µg/mL');

Let us move to another entry and its TGI.
Incoming: Entry Cc1cccc(/C=N/NC(=S)NC(C)(C)C)n1 : reported TGI = ?
Outgoing: > 100 µM

---

Tested on: NCI-H23 lung
Test: NCI tumour cell line growth inhibition, 48 h
Metric: TGI

Check out these entries, answers already filled in.
INSERT INTO results (compound, metric, val) VALUES
  ('O=c1oc2ccccc2cc1-c1nc2ccccc2s1', 'TGI', '39.4 µM'),
  ('COCCOC(=O)CCn1cc(F)c(=O)[nH]c1=O', 'TGI', '> 150 µg/mL'),
  ('CN1C=CN(Cc2ccc(-c3ccccn3)nc2)[CH-]1.CN1C=CN(Cc2ccc(-c3ccccn3)nc2)[CH-]1.[Au+3]', 'TGI', '> 100 µM');

Incoming: What measured TGI is associated with Cc1ccc(C)c(NC(=O)CCc2n[nH]c(=S)o2)c1 on NCI-H23 lung?
Outgoing: > 100 µM

Incoming: What measured TGI is associated with COc1ccc(/C=C/CO)cc1OC on NCI-H23 lung?
Outgoing: > 100 µM

Incoming: What measured TGI is associated with CCOC(=O)C1C2C1C1C(C(=O)OCC)C21 (stereo not drawn) on NCI-H23 lung?
Outgoing: > 100 µM

---

Tested on: UACC-62 melanoma
Experiment: NCI tumour cell line growth inhibition, 48 h
Metric: TGI (µM)
Write the value in µM as a bare number.

INSERT INTO assay_data (compound, unit, val) VALUES
  ('Cc1cc(C(C)(C)C)c(OCCCN2CCOCC2)c(C(C)(C)C)c1', 'µM', 29.8),
  ('COc1cccc2c1C(=O)c1c(O)c3c(c(O)c1C2=O)C[C@](O)(C(=O)CO)CC3OC1CC(N)C(OC2CCCCO2)C(C)O1 (stereo partly specified)', 'µM', 1.11);

Incoming: Entry NC(=O)CN1CCN(c2nc(N3CCCC3)c3nc(Cl)c(NCc4ccccc4)nc3n2)CC1 : reported TGI = ?
Outgoing: 17.2

---

Test system: OVCAR-5 ovarian
Experiment: NCI tumour cell line growth inhibition, 48 h
Listed below: TGI values for each entry.

Check out these entries, answers already filled in.
INSERT INTO measurements (molecule, val) VALUES
  ('C/C(=N\N=C(N)N)c1sc(-c2nc(C)c(/C(C)=N/N=C(N)N)s2)nc1C', '> 100 µM'),
  ('CCCNC(=O)Cn1c(-c2ccccc2)cc2ccccc21', '> 100 µM'),
  ('Cc1ccc2c3ccc4c(c3n(C)c2c1)C(=O)C=CC4=O', '> 10 µM'),
  ('Cc1cc(C#Cc2ccccc2)ccc1-n1c(/C=C/c2ccc(O)cc2)nc2ccccc2c1=O', '94.7 µM');

Let us move to another entry and its TGI.
Incoming: Entry Clc1cccc(Cl)c1C1ON=C(c2ccccc2)N1C12CC3CC(CC(C3)C1)C2 (stereo not given) : reported TGI = ?
Outgoing: > 100 µM

---

Test system: KM12 colon
Experiment: NCI tumour cell line growth inhibition, 48 h
Please enter 1 (yes) where TGI is greater than or equal to 20 µM, and 0 (no) where it is lower.

Example entries and their recorded answers appear below.
INSERT INTO assay_data (molecule, group_label) VALUES
  ('O=C(c1ccccc1)c1ccc2c(c1)N=C(c1ccc(Cl)c(Cl)c1)CC(c1ccc3ccccc3c1)N2 (stereo unspecified)', '1 (yes)'),
  ('N#CCc1nc2c(s1)C(=O)c1ccccc1C2=O', '1 (yes)'),
  ('CC(C)=CCC/C(C)=C/CCC1(C)C2COC(=O)C21 (stereo unspecified)', '1 (yes)'),
  ('CC(=O)OCC1OC(O[C@@H]2C[C@H]3C(C)(C)[C@H](OC(C)=O)CC[C@]3(C)[C@H]3CC[C@@H]4[C@]5(CC[C@@]4(C)[C@@]32C)O[C@@H]([C@H](O)C(C)(C)O)C[C@@H]5C)C(O)C(O)C1O (stereo partly specified)', '0 (no)'),
  ('Cc1ccc(Nc2ccnc(Nc3cccc(C(N)=O)c3)n2)cc1O', '1 (yes)');

Incoming: I'd appreciate it if you could say whether C[C@@H]1CC[C@H]2C(CN3CCN(CC4=C(C(F)(F)F)O[C@@H]5O[C@@]6(C)CC[C@H]7[C@H](C)CC[C@@H]4[C@@]57OO6)CC3)=C(C(F)(F)F)O[C@@H]3O[C@@]4(C)CC[C@@H]1[C@]32OO4 has TGI at least equal to 20 µM.
Outgoing: 1 (yes)

Incoming: I'd appreciate it if you could say whether CCOc1cc(C=Nc2ccc(Oc3ccc(Cl)cc3)c(Cl)c2)ccc1O has TGI at least equal to 20 µM.
Outgoing: 1 (yes)

Incoming: I'd appreciate it if you could say whether CC(C)=CCC[C@](C)(O)[C@H]1CC[C@]2(C)[C@@H]1CC[C@@H]1[C@@]3(C)CC[C@H](OC(=O)CCC(=O)O)C(C)(C)[C@@H]3CC[C@]12C has TGI at least equal to 20 µM.
Outgoing: 1 (yes)

Incoming: I'd appreciate it if you could say whether O=c1oc2ccccc2cc1-c1nc2ccccc2s1 has TGI at least equal to 20 µM.
Outgoing: 1 (yes)

Incoming: I'd appreciate it if you could say whether O=c1[nH]nc(Cc2ccc([N+](=O)[O-])cc2)[nH]1 has TGI at least equal to 20 µM.
Outgoing: 1 (yes)

Incoming: I'd appreciate it if you could say whether COC(=O)C1CC(C=O)=C(SC)N1 (stereo unspecified) has TGI at least equal to 20 µM.
Outgoing: 1 (yes)

---

System: HOP-62 NSCLC
Experiment: NCI tumour cell line growth inhibition, 48 h
Please enter true where TGI is greater than or equal to 60 µM, and false where it is lower.

Incoming: I'd appreciate it if you could say whether COc1ccccc1OCC(O)CO (stereo not given) has TGI at least equal to 60 µM.
Outgoing: true

Incoming: I'd appreciate it if you could say whether COc1ccc(C2CC(C)=Nc3c([nH]c(=S)[nH]c3=O)N2)cc1 (stereo not given) has TGI at least equal to 60 µM.
Outgoing: true

Incoming: I'd appreciate it if you could say whether C[N+](C)(C)c1nc(N)nc2c1ncn2C1OC(CO)C(O)C1O (stereo not given) has TGI at least equal to 60 µM.
Outgoing: true

Incoming: I'd appreciate it if you could say whether COc1ccc2c3c([nH]c2c1)[C@H]1C[C@H]2[C@H](C[C@@H](O)[C@H](OC)[C@H]2C(=O)O)CN1CC3 has TGI at least equal to 60 µM.
Outgoing: true

Incoming: I'd appreciate it if you could say whether C=C1C(=O)C23C(CC(OC(C)=O)C1[C@@H]2OC(C)=O)C1(C)C(OC(C)=O)CCC(C)(C)C1C[C@@H]3OC(C)=O (stereo not given in full) has TGI at least equal to 60 µM.
Outgoing: false
